- Tested on: MS2 coat protein
- TEST_DESCRIPTION: apparent KD of MS2 coat protein; higher = weaker reporter binding
- MEASUREMENT_SETUP: Eterna round: R107; input ligand: none
Kindly return Y if reported apparent KD of MS2 coat protein is no lower than 20 nM; return N if it is lower.

[
  {
    "RESIDUES": "GGCACCAGGAGAAGGAGCGUGAAGACAUGAGGAUCACCCAUGUAGAGGCCCGUACAGGGUUCGCAGGUAGGUCGCUCCUGGUGCC [#1 Same State - Arginine B Attempt #12 (HarryS)]",
    "GROUP_LABEL": "N"
  },
  {
    "RESIDUES": "GAGCUGAUGUAGGCCGGAUAUCCGGGAGAUACCAGUACAGAAAUGUACCCUUGGCAGCUCUUUCUUACAUGAGGAUCACCCAUGU [Ex Theophylline A 27]",
    "GROUP_LABEL": "N"
  },
  {
    "RESIDUES": "UGGCAAGAGGGAAGGAGCGUCAGCUGAGUCACAUGAGGAUCACCCAUGUAGCACAUAGUGUGACAGGUAGGUCGCCCUCUGCCGU [SS-ArgB10]",
    "GROUP_LABEL": "N"
  },
  {
    "RESIDUES": "AGAGUUAGACAAAAGUCUAGCUCACCAGAAGGAGCGUCCGAAAGGACAGGUAGGUCGCUGGUACAUGAGCAUCAGCCAUGUUCCU [ArgAS 15 #OpenEnded #AlternativeMS2]",
    "GROUP_LABEL": "Y"
  },
  {
    "RESIDUES": "UGUACCUAGUCGGCCGCCACUCCAAAAGGAGAGGAUCACCCUCCUAAACGAGUCAAAGACUCGAGGAGGACCGGGACUAGGUACU [Palindromic MS2 #AlternativeMS2 #Palindrome #StaticStem]",
    "GROUP_LABEL": "Y"
  }
]

###

- Test system: K4 kissing-loop RNA reporter;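 also: bound reporter read as fluorescence of individual clusters on recovered sequencing chips by microscopy, with normalized cluster intensities fitted with a binding model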
- TEST_DESCRIPTION: apparent KD of K4 kissing-loop reporter; higher = weaker reporter binding
- MEASUREMENT_SETUP: Eterna round: R107; input ligand: none
Use true (1) when the recorded apparent KD of K4 kissing-loop reporter is no lower than 300 nM; use false (0) when it is lower.

[
  {
    "RESIDUES": "AGACUUCACCGAAGGAGCGACGUGGCCUAGUGAUGUUAGGCACGAGAGAAAUCUCGUGUACGUCAGGUAGGUCGCGGUGAAGUCA [Omei KL Arginine B SS C v7]",
    "GROUP_LABEL": "true (1)"
  },
  {
    "RESIDUES": "GGUAGCAUGGCGGCCGCCACUUGCACUCGUCUUGCAUAUUGGCCUAUGAUAGUAGUGAUGUUACUAAGGACCGGGCCAUGCUACC",
    "GROUP_LABEL": "false (0)"
  },
  {
    "RESIDUES": "GAUUUAGAGGCGGCCGCCACUAGUGAUGUUAGUGAUGUUUGAUACUGUAUAUAUCGGCGUGUAGAUAGGACCGGGCCAGAUGGAG [tbqqmullin]",
    "GROUP_LABEL": "false (0)"
  },
  {
    "RESIDUES": "AAAGCAUUGAGAAGGAGCGUGUCGUGGAGUGAUGUUCCAUUGUAGACCUAAGGUCUACAAGCACAGGUAGGUCGCUCAUUGCUAA [JR_Nu_SSArginiB_Sub023]",
    "GROUP_LABEL": "false (0)"
  },
  {
    "RESIDUES": "CGCAGUGAUGUUGCGAGUAACUACAGGGAAGGAGCGCGGUAGUCCGCAGGUAGGUCGCCCACGCAGUGAUGUUGCGUCAUAGGGU [Exclusion Arg A GF7]",
    "GROUP_LABEL": "false (0)"
  },
  {
    "RESIDUES": "GCUAUGGUAGGAAGGAGCGCUUAUUUAUUUUUACGAGUGAUGUUCGGUAGUAGAUAGUUAAAGCAGGUAGGUCGCCUACUAUAGC [Arginine B K4 16]",
    "GROUP_LABEL": "false (0)"
  },
  {
    "RESIDUES": "AUUUAUGUUUCGGCCGCCACUCCACGUACUCAGAGAGAGUGAUGUUCUUUUUAUUAACGUCUAUGGAGGACCGGGAAGAGGUGAG [theeternabot_exclusion_KL_Trp_B_37]",
    "GROUP_LABEL": "true (1)"
  },
  {
    "RESIDUES": "AGUUUAGAGUGACUCGAUAAGAGUCACAAACGAGGACCGGUACGGCCGCCACUCGAAAUAACGAGAGUGAUGUUCUCGCUGGGCA [FiskerMod 3 - Jieux - Same State Tryptophan A]",
    "GROUP_LABEL": "true (1)"
  },
  {
    "RESIDUES": "CAUACGCAUGGAGGAUAUGAGAUUACUCAUAUCAUUUAAUAUUCUCAGUGAUGUUGAGAUUUAGACUCAGAAGGCCAUGUGUAUG [Ex FMN B 13]",
    "GROUP_LABEL": "true (1)"
  },
  {
    "RESIDUES": "UUACAGCCCAGUGAUGUUGGGUAGCGGCGGCGAGGACCGGUACGGCCGCCACUCGGCGCACAGGCGGAGUGAUGUUUUGCUUAAA [Same State Tryptophan A GF 11]",
    "GROUP_LABEL": "true (1)"
  },
  {
    "RESIDUES": "CCUAUCUCAUACGAUACCAGUCAAUGAUAUUUUAUCAAUGCCAUCACCGAGUGAUGUUCGGACCCUUGGCAGCGUAUGGGAUAGG [whbob_Ex_Theo_B_sa101]",
    "GROUP_LABEL": "false (0)"
  },
  {
    "RESIDUES": "GUUGUAUACUGAAGGAGCGAGUAGUGGAAACAUAAACUCAUUGCGAGUGAUGUUCGCGGUACUCAGGUAGGUCGCGGUAAUCGUA [Exclusion Arginine B Gf 11]",
    "GROUP_LABEL": "true (1)"
  },
  {
    "RESIDUES": "GUCCCAGUGAUGUUGGUAGGCGGGCGGGAUACCAGCGAAGACUCACGCCCUUGGCAGCCCACAUAUCCCGCGUAGGGAUUAGCCC [Same State - Theophylline A (Freestyle 22)]",
    "GROUP_LABEL": "true (1)"
  },
  {
    "RESIDUES": "UCCCUAAAGGGAGAUACCAGUAAAGAAGUGACGGAGUGGAGUGAUGUUCCAUAUUACUGAUACCCUUGGCAGCUCUUUUGAUUAC [theeternabot_sameState_KL_Theo_B_47]",
    "GROUP_LABEL": "false (0)"
  },
  {
    "RESIDUES": "GGGCGUAUUCACCGAGUGAUGUUCGGAAGGAAGGAUAUUCAAGAUUGAAGAAGGUCCGGCCCAUCGGCCAUUAAACUUGAAAGGU [theeternabot_sameState_KL_FMN_A_48]",
    "GROUP_LABEL": "false (0)"
  },
  {
    "RESIDUES": "AAAUAUUCGAGUGAUGUUCGAAUAAUAUCAGAGGAUAUGCAUAAAAGCAGAAGGCUGUAUUACUUUUUGUUACGAAAUUUUAUAA [JR_SSFMNA_Sub020]",
    "GROUP_LABEL": "false (0)"
  },
  {
    "RESIDUES": "AGUGAUGUUGUGUUAUCUUAGUGAAGUGAUCGAGGACCGGUACGGCCGCCACUCGAGUGAUGAGUGAGUGAUGUUUGUUUAGGGA [vvbmullin]",
    "GROUP_LABEL": "true (1)"
  },
  {
    "RESIDUES": "AAAAUAAAUCAGUGAUGUUGGUAUCUGGAUACCAGCGAUAAUAAUCGCCCUUGGCAGCCAUGGACGUACAAAAUAAGUACGUCCU [MatMod 18 - Jieux - Same State - Theophylline A]",
    "GROUP_LABEL": "false (0)"
  },
  {
    "RESIDUES": "UCUGUUGUAUAUGAUACCAGCAGUGAGAGAUGAGAAGUAUAGUGAUGUUAUAUGAGUGAAUGCCCUUGGCAGCGUGUGCGUGUGG [SSTheophylB.aD]",
    "GROUP_LABEL": "false (0)"
  },
  {
    "RESIDUES": "UGUGUUUACCUGACUCAGUGAUGUUGAGAAGGAGCGUGCUAAGGCACAGGUAGGUCGCUCAACCUAAAUUCAGGUGAGCACUAAA",
    "GROUP_LABEL": "false (0)"
  },
  {
    "RESIDUES": "AUUUGUUUAUGUGAUACCAGACUUUGCAGUGAUGUUGCUUUUAUUUUUGAAUUUUAAAUAGUCCCUUGGCAGCACUAUGUAUUUA [JR_SSTheophyB_Sub009]",
    "GROUP_LABEL": "false (0)"
  },
  {
    "RESIDUES": "UAAAUAAUAAAACGAGUGAUGUUCGACGAUACCAGCCUCGAUAGAGGCCCUUGGCAGCGUAAAUGAUCACAAAGCCAAGGUAUAA [#01 K4 Theophylline A Exclusion]",
    "GROUP_LABEL": "false (0)"
  }
]
